Data credit: patent US20110092544A1

# Test system: Rhizoctonia oryzae
# assay-comment: Test G: turf brown patch, preventive spray on creeping bent grass seedlings, visual disease rating
# Assay type: in vivo
# study-conditions: 200 ppm, 100 = 100% disease control, 0 = no control
compounds and their reported Test G rating (% disease control)
Just the number please, in %, no unit attached.

Recorded Test G rating (% disease control), per entry:
[[record]]
compound = "CCOC(=O)c1cnc(C)c(-c2ccccc2)c1-c1cc(F)cc(F)c1 [Compound 8]"
observed_value = 0

[[record]]
compound = "CCOC(=O)c1cnc(CC)c(-c2ccccc2)c1-c1cc(OC)cc(OC)c1 [Compound 31]"
observed_value = 0

[[record]]
compound = "COc1cc(OC)cc(-c2c(-c3ccccc3)c(C)nc(C)c2-c2ccc(F)cc2)c1 [Compound 22]"
observed_value = 0


Now take the following compound into account.
*Q* System Rhizoctonia oryzae. Read-out Test G rating (% disease control). Item COc1cc(OC)cc(-c2c(-c3ccccc3F)cnc(C)c2-c2ccccc2)c1 [Compound 32] . Report value.
*A* 99

====

# Test system: Puccinia recondite f. sp. tritici
# assay-comment: Test B: wheat leaf rust, preventive spray on wheat seedlings, visual disease rating
# Assay type: in vivo
# study-conditions: 200 ppm, 100 = 100% disease control, 0 = no control
metric-name: Test B rating (% disease control) (%)
Just the number please, in %, no unit attached.

Recorded Test B rating (% disease control), per entry:
[[record]]
compound = "COc1cc(OC)cc(-c2c(-c3ccc(F)cc3)cnc(C)c2-c2ccc(F)cc2F)c1 [Compound 95]"
unit_label = "%"
observed_value = 99

[[record]]
compound = "COc1cc(OC)cc(-c2c(-c3ccccc3F)cnc(C)c2-c2ccccc2)c1 [Compound 32]"
unit_label = "%"
observed_value = 96


*Q* Entry COc1cc(OC)cc(-c2c(C(=O)N(C)C)cnc(C)c2-c2ccccc2)c1 [Compound 10] needs its Test B rating (% disease control) filled in; supply it.
*A* 0

*Q* Entry COc1cc(OC)cc(-c2c(Cn3ccc(C(F)(F)F)n3)cnc(C)c2-c2c(F)cc(F)cc2F)c1 [Compound 108] needs its Test B rating (% disease control) filled in; supply it.
*A* 85

*Q* Entry COc1cc(OC)cc(-c2c(C(O)C(C)C)cnc(C)c2-c2c(F)cc(F)cc2F)c1 (stereo not drawn) [Compound 103] needs its Test B rating (% disease control) filled in; supply it.
*A* 100

*Q* Entry COc1cc(OC)cc(-c2c(C(C)=O)cnc(C)c2-c2ccccc2F)c1 [Compound 17] needs its Test B rating (% disease control) filled in; supply it.
*A* 98

====

# Tested on: Rhizoctonia oryzae
# assay-comment: Test G: turf brown patch, preventive spray on creeping bent grass seedlings, visual disease rating
# Type: in vivo
# study-conditions: 200 ppm, 100 = 100% disease control, 0 = no control
metric-name: Test G rating (% disease control) (%)
Just the number please, in %, no unit attached.

Recorded Test G rating (% disease control), per entry:
[[record]]
cpd_smiles = "COc1cc(OC)cc(-c2c(-c3ccc(F)cc3)cnc(C)c2-c2ccccc2)c1"
observed_value = 14

[[record]]
cpd_smiles = "COc1cc(OC)cc(-c2c(C(C)C)c[n+]([O-])c(C)c2-c2ccccc2)c1"
observed_value = 0

[[record]]
cpd_smiles = "CCOC(=O)c1cnc(C)c(-c2ccccc2F)c1-c1cc(OC)cc(OC)c1"
observed_value = 0


*Q* Entry "COc1cc(OC)cc(-c2c(C(C)C)cnc(C)c2-c2ccccc2)c1" needs its Test G rating (% disease control) filled in; supply it.
*A* 0

====

compounds and their reported Test D rating (% disease control)
# Test system: Septoria nodorum
# assay-comment: Test D: wheat glume blotch, preventive spray on wheat seedlings, visual disease rating
# Type: in vivo
# study-conditions: 200 ppm, 100 = 100% disease control, 0 = no control
Just the number please, in %, no unit attached.

[[record]]
compound = "CNC(=O)c1cnc(C)c(-c2ccccc2)c1-c1cc(OC)cc(OC)c1 [Compound 9]"
unit_label = "%"
observed_value = 0

[[record]]
compound = "COc1cc(OC)cc(-c2c(-c3c(F)cc(F)cc3F)cnc(Cl)c2-c2c(F)cc(F)cc2F)c1 [Compound 80]"
unit_label = "%"
observed_value = 0


*Q* Entry CCOC(=O)c1cnc(C)c(-c2ccccc2)c1-c1cc(OC)ccc1F [Compound 15] needs its Test D rating (% disease control) filled in; supply it.
*A* 0

*Q* Entry COc1cc(OC)cc(-c2c(C(C)=O)cnc(C)c2-c2c(F)ccc(F)c2F)c1 [Compound 68] needs its Test D rating (% disease control) filled in; supply it.
*A* 0

*Q* Entry COc1cc(OC)cc(-c2c(CN3CCCCC3)cnc(C)c2-c2c(F)cc(F)cc2F)c1 [Compound 111] needs its Test D rating (% disease control) filled in; supply it.
*A* 0

*Q* Entry COc1ccc(-c2c(C)ncc(C(C)C)c2-c2cc(OC)cc(OC)c2)cc1 [Compound 65] needs its Test D rating (% disease control) filled in; supply it.
*A* 0

*Q* Entry COc1cc(OC)cc(-c2c(Cn3cncn3)cnc(C)c2-c2c(F)cc(F)cc2F)c1 [Compound 104] needs its Test D rating (% disease control) filled in; supply it.
*A* 99

====

# Tested on: Septoria nodorum
# assay-comment: Test D: wheat glume blotch, preventive spray on wheat seedlings, visual disease rating
# Format: in vivo
# study-conditions: 200 ppm, 100 = 100% disease control, 0 = no control
metric-name: Test D rating (% disease control) (%)
Just the number please, in %, no unit attached.

*Q* System Septoria nodorum. Read-out Test D rating (% disease control). Item "CCOC(=O)c1cnc(C)c(-c2ccccc2F)c1-c1cc(OC)cc(OC)c1" . Report value.
*A* 0

====

compounds and their reported pest or weed control at 200 ppm
# Test system: Plasmopara viticola
# assay-comment: Test H: grape downy mildew, spray after inoculation of grape seedlings, visual disease rating
# Type: in vivo
# study-conditions: Plasmopara viticola, 192 h, 200 ppm, 100 = 100% disease control, 0 = no control
Answer with the figure and its unit, nothing else.

Recorded pest or weed control at 200 ppm, per entry:
[[record]]
compound = "COc1cc(OC)cc(-c2c(-c3ccccc3)cnc(C)c2-c2ccc(F)cc2)c1 [Compound 34]"
observed_value = "0%"

[[record]]
compound = "COc1cc(OC)cc(-c2c(C(C)=O)cnc(C)c2-c2ccc(F)cc2)c1 [Compound 12]"
observed_value = "0%"

[[record]]
compound = "COc1cc(OC)cc(-c2c(C(C)C)cnc(C)c2-c2ccc(F)cc2)c1 [Compound 19]"
observed_value = "0%"


Now take the following compound into account.
*Q* System Plasmopara viticola. Read-out pest or weed control at 200 ppm. Item COc1cc(OC)cc(-c2c(C(C)=O)cnc(C)c2-c2c(F)cc(F)cc2F)c1 [Compound 40] . Report value.
*A* 0%

====

# Test system: Alternaria solani
# assay-comment: Test E: tomato early blight, preventive spray on tomato seedlings, visual disease rating
# Type: in vivo
# study-conditions: 200 ppm, 100 = 100% disease control, 0 = no control
compounds and their reported Test E rating (% disease control)
Just the number please, in %, no unit attached.

*Q* Entry "CCOC(=O)c1cnc(C)c(-c2ccccc2)c1-c1cc(OC)cc(OC)c1" needs its Test E rating (% disease control) filled in; supply it.
*A* 0

*Q* Entry "COc1cc(OC)cc(-c2c(C(C)=O)cnc(C)c2-c2c(F)cccc2F)c1" needs its Test E rating (% disease control) filled in; supply it.
*A* 99

*Q* Entry "COc1cc(OC)cc(-c2c(-c3ccc(F)cc3)cnc(C)c2-c2ccccc2)c1" needs its Test E rating (% disease control) filled in; supply it.
*A* 30

*Q* Entry "CCOC(=O)c1cnc(C)c(-c2ccccc2)c1-c1cc(OC)ccc1Cl" needs its Test E rating (% disease control) filled in; supply it.
*A* 0

*Q* Entry "COc1cc(OC)cc(-c2c(C(C)=O)cnc(C)c2-c2c(F)ccc(OC)c2F)c1" needs its Test E rating (% disease control) filled in; supply it.
*A* 0

*Q* Entry "COc1cc(OC)cc(-c2c(C(C)C)cnc(C)c2-c2c(F)cccc2F)c1" needs its Test E rating (% disease control) filled in; supply it.
*A* 94

*Q* Entry "CCOC(=O)c1cnc(C)c(-c2ccc(OC)cc2)c1-c1cc(OC)cc(OC)c1" needs its Test E rating (% disease control) filled in; supply it.
*A* 0

*Q* Entry "COc1cc(OC)cc(-c2c(-c3ccc(F)cc3)cnc(C)c2-c2ccc(F)cc2F)c1" needs its Test E rating (% disease control) filled in; supply it.
*A* 73

====

compounds and their reported Test G rating (% disease control)
# Tested on: Rhizoctonia oryzae
# assay-comment: Test G: turf brown patch, preventive spray on creeping bent grass seedlings, visual disease rating
# Format: in vivo
# study-conditions: 200 ppm, 100 = 100% disease control, 0 = no control
Just the number please, in %, no unit attached.

*Q* System Rhizoctonia oryzae. Read-out Test G rating (% disease control). Item "COc1cc(OC)cc(-c2c(C(=O)N(C)C)cnc(C)c2-c2ccccc2)c1" . Report value.
*A* 0

*Q* System Rhizoctonia oryzae. Read-out Test G rating (% disease control). Item "COc1cc(OC)cc(-c2c(-c3ccccc3)c(C)nc(C)c2-c2ccccc2F)c1" . Report value.
*A* 0
